Catalogue of molecules with associated viability, T/C
system: 362531-283-R-J2-PDC complex spheroid viability; experiment: Anticancer human tumor 362531-283-R-J2-PDC patient-derived colon adenocarcinoma cell line growth inhibition [RAS]; conditions: second compound 0.00316 µM; first compound 0.1 µM; active compounds read low;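 also: spheroids exposed to the agents for 7 days before readout; luminescence viability as percent of DMSO vehicle control wells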
ENDPOINT_LABEL: viability, T/C (%)

MOLECULE	RESULT_VALUE
O=C(c1ccc(F)c(F)c1Nc1ccc(I)cc1F)N1CC(O)([C@@H]2CCCCN2)C1 + C=CC(=O)N1CCN(c2nc(OCC3CCCN3C)nc3c(F)c(-c4nc(N)cc(C)c4C(F)(F)F)c(Cl)cc23)C(C)C1	84.8
NC1c2ccccc2OC12CCN(c1cnc3c(N4CCCc5ncccc54)n[nH]c3n1)CC2 (stereo not given) + C=CC(=O)N1CCN(c2nc(OCC3CCCN3C)nc3c(F)c(-c4nc(N)cc(C)c4C(F)(F)F)c(Cl)cc23)C(C)C1	76.8
Nc1ccn(C2OC(CO)C(O)C2(F)F)c(=O)n1 (stereo not given) + C=CC(=O)N1CCN(c2nc(OCC3CCCN3C)nc3c(F)c(-c4nc(N)cc(C)c4C(F)(F)F)c(Cl)cc23)C(C)C1	61.8
CC(C)NCC(C(=O)N1CCN(c2ncnc3c2C(C)CC3O)CC1)c1ccc(Cl)cc1 (stereo not given) + C=CC(=O)N1CCN(c2nc(OCC3CCCN3C)nc3c(F)c(-c4nc(N)cc(C)c4C(F)(F)F)c(Cl)cc23)C(C)C1	98.7
CC(C)n1nc(-c2ccc3oc(N)nc3c2)c2c(N)ncnc21 + C=CC(=O)N1CCN(c2nc(OCC3CCCN3C)nc3c(F)c(-c4nc(N)cc(C)c4C(F)(F)F)c(Cl)cc23)C(C)C1	97.1
CC(=O)OC12COC1CC(O)C1(C)C(=O)C(O)C3=C(C)C(OC(=O)C(O)C(NC(=O)OC(C)(C)C)c4ccccc4)CC(O)(C(OC(=O)c4ccccc4)C21)C3(C)C (stereo not given) + C=CC(=O)N1CCN(c2nc(OCC3CCCN3C)nc3c(F)c(-c4nc(N)cc(C)c4C(F)(F)F)c(Cl)cc23)C(C)C1	87.7
CCC(CC)c1cc(NC2CCC(N)C2)n2nccc2n1 (stereo not given) + C=CC(=O)N1CCN(c2nc(OCC3CCCN3C)nc3c(F)c(-c4nc(N)cc(C)c4C(F)(F)F)c(Cl)cc23)C(C)C1	100
CC(Nc1ccc2c(c1)OCCn1cc(N3C(=O)OCC3C(F)F)nc1-2)C(N)=O (stereo not given) + C=CC(=O)N1CCN(c2nc(OCC3CCCN3C)nc3c(F)c(-c4nc(N)cc(C)c4C(F)(F)F)c(Cl)cc23)C(C)C1	78.6
CCN1CCN(Cc2ccc(Nc3ncc(F)c(-c4cc(F)c5nc(C)n(C(C)C)c5c4)n3)nc2)CC1 + C=CC(=O)N1CCN(c2nc(OCC3CCCN3C)nc3c(F)c(-c4nc(N)cc(C)c4C(F)(F)F)c(Cl)cc23)C(C)C1	76
C=CC(=O)Nc1cc(Nc2nccc(-c3cn(C)c4ccccc34)n2)c(OC)cc1N(C)CCN(C)C + C=CC(=O)N1CCN(c2nc(OCC3CCCN3C)nc3c(F)c(-c4nc(N)cc(C)c4C(F)(F)F)c(Cl)cc23)C(C)C1	95.6
